# method: Plasma clearance in dog at 1 mg/kg, iv by LC-MS/MS analysis
# Assay type: ADME, organism-based, Canis lupus familiaris
Listed next: entries and their corresponding clearance.
measure-name: clearance (mL/min/kg)

1) Cc1cc(C(=O)N[C@H]2CCCCC/C=C\[C@@H]3C[C@@]3(C(=O)NS(=O)(=O)C3CC3)NC(=O)[C@@H]3C[C@@H](Oc4nc5cc(F)ccc5nc4C(F)(F)F)CN3C2=O)no1 = 0.667
2) Cc1cc(C(=O)N[C@H]2CCCCC/C=C\[C@@H]3C[C@@]3(C(=O)NS(=O)(=O)C3CC3)NC(=O)[C@@H]3C[C@@H](Oc4nc5ccccc5nc4C)CN3C2=O)no1 = 7.83
3) CC(=O)N(C)[C@@H](CC(C)(C)C)C(=O)N[C@H]1CCCCC/C=C\[C@@H]2C[C@@]2(C(=O)NS(=O)(=O)C2(C)CC2)NC(=O)[C@@H]2C[C@@H](Oc3nc4cc(F)ccc4c4ccccc34)CN2C1=O = 1.17
4) Cc1cc(C(=O)N[C@H]2CCCCC/C=C\[C@@H]3C[C@@]3(C(=O)NS(=O)(=O)C3(C)CC3)NC(=O)[C@@H]3C[C@@H](Oc4nc5ccccc5c5ccc(F)cc45)CN3C2=O)no1 = 0.333
5) Cn1ccc(C(=O)N[C@H]2CCCCC/C=C\[C@@H]3C[C@@]3(C(=O)NS(=O)(=O)C3(C)CC3)NC(=O)[C@@H]3C[C@@H](Oc4nc5cc(OC(F)(F)F)ccc5c5ccc(F)cc45)CN3C2=O)n1 = 0.167
